Target: bovine serum albumin (BSA) (Bos taurus)
Construct: purchased Sigma-Aldrich (St. Louis, MO)
Sequence (P02769 25-607): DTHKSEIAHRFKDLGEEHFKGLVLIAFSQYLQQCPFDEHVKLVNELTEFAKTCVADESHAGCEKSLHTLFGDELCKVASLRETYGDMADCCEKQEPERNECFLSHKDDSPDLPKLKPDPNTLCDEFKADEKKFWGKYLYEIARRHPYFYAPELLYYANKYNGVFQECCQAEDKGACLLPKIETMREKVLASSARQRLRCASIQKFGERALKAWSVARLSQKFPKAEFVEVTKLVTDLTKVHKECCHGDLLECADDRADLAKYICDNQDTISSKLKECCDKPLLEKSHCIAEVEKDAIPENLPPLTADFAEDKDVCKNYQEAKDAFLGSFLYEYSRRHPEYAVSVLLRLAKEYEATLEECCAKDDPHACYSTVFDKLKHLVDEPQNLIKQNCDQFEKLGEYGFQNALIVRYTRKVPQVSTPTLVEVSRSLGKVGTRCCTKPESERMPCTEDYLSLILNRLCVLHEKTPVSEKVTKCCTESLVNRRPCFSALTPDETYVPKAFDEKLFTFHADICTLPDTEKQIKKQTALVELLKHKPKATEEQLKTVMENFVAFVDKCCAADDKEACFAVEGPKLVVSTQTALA
Experiment Notes: Label-free differential scanning fluorimetry, BSA melting temperature shift (protein stabilization)
Format: binding
Measurement Parameters: ligand:BSA ratios 0:1 to 4:1; 10 μM BSA, pH 7.4 PBS
Property: Stabilizing effect on BSA folded structure (ΔTm)

O=S(=O)([O-])C(F)(F)C(F)(F)C(F)(F)C(F)(F)F.[Na+] [PFBS, Sodium perfluorobutylsulfonate]    little stabilization
O=C(O)C(F)(OC(F)(F)C(F)(F)C(F)(F)F)C(F)(F)F (stereo not drawn) [GenX, Perfluoro-2-methyl-3-oxahexanoic acid]    little stabilization
